readoutName: AC50

[Q] Enter recorded AC50 with Cytochrome P450 2C9 (Homo sapiens, UniProt P11712) for Cc1nc2cnc(N3CCNCC3)nc2n(CCc2ccccc2)c1=O here.
Sequence (P11712 whole entry): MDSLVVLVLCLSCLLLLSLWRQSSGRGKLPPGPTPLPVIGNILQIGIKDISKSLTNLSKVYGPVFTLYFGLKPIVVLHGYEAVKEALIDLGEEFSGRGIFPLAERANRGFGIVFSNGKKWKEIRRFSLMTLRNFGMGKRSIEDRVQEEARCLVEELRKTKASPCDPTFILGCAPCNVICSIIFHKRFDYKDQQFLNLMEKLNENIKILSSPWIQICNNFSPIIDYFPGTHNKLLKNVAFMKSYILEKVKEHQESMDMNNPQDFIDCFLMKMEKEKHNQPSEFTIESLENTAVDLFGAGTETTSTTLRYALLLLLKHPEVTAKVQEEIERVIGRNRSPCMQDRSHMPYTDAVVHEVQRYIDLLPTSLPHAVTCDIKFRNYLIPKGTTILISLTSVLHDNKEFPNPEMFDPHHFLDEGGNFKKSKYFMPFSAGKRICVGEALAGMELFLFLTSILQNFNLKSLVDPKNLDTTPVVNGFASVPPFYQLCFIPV
[A] 39.8 µM (inconclusive)

[Q] Enter recorded AC50 with Cytochrome P450 2C9 (Homo sapiens, UniProt P11712) for Cc1ccc(C(=O)NC(=S)Nc2cc(-c3nc4ccccc4s3)ccc2C)cc1 here.
[A] 1.78 µM (inconclusive)

[Q] Enter recorded AC50 with Cytochrome P450 2C9 (Homo sapiens, UniProt P11712) for CCS(=O)(=O)c1ccc(O)c(NC(=O)Nc2ccccc2)c1 here.
[A] 7.08 µM (inconclusive)

[Q] Enter recorded AC50 with Cytochrome P450 2C9 (Homo sapiens, UniProt P11712) for COc1ccc2c(c1)-c1c(sn(-c3ccc(OC)c(OC)c3)c1=S)C(C)(C)N2 here.
[A] 5.01 µM (inconclusive)

[Q] Enter recorded AC50 with Cytochrome P450 2C9 (Homo sapiens, UniProt P11712) for CN(C)C(=O)CN(c1ccc2c(c1)OCO2)S(C)(=O)=O here.
[A] 0.178 µM (inconclusive)

###

Biological target: UniProt Q9H0H5
Sequence (Q9H0H5 whole entry): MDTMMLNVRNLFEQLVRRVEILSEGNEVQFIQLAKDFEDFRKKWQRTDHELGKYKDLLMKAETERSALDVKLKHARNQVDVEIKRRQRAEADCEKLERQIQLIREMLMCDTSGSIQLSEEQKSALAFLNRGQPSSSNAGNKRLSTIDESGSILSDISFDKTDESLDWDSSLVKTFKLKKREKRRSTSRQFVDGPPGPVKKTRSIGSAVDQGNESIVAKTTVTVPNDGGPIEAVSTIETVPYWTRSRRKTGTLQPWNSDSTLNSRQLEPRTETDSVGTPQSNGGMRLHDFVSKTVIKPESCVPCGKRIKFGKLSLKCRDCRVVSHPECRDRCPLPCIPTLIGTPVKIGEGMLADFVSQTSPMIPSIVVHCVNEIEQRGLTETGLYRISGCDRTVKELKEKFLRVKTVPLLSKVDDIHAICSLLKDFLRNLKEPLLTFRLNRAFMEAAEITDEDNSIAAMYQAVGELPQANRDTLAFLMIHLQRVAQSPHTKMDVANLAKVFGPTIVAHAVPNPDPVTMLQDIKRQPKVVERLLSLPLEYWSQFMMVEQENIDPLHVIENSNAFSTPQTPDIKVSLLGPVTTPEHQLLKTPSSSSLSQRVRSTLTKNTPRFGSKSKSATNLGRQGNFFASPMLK
Assay: MgcRacGAP GTPase-activating activity inhibitors, confirmation, biochemical, ADP Hunter fluorescence, primary and confirmatory (AID 624330)
Type: functional
Calls of active or inactive are those of the source. No rule for the calls is given here.
readoutName: IC50

[Q] Given the molecule COc1cc(CNc2ccc(N3CCN(C(C)=O)CC3)cc2)ccc1OCc1ccccc1 , write its reported IC50.
[A] 12.8 µM (active)

[Q] Given the molecule CN(C)/C=C1/C=C(c2ccccc2)OC1=O , write its reported IC50.
[A] 52.1 µM (active)

[Q] Given the molecule NS(=O)(=O)c1ccc(Nc2nc(-c3ccc(O)cc3O)cs2)cc1 , write its reported IC50.
[A] 44.5 µM (active)

[Q] Given the molecule Cc1ccc(/C=[N+](\[O-])c2ccc(N(C)C)cc2)c2nsnc12 , write its reported IC50.
[A] 9.25 µM (active)

[Q] Given the molecule O=C(O)c1cccc2cccc(-c3c4ccc(=O)c(O)c-4oc4c(O)c(O)ccc34)c12 , write its reported IC50.
[A] 13.3 µM (active)

[Q] Given the molecule CCOc1cc(/C=N/NC(=O)CN2CCCCC2)ccc1O , write its reported IC50.
[A] 50.4 µM (active)

[Q] Given the molecule COc1cccc(C(=O)N2CCN(C3CCCCC3)CC2)c1 , write its reported IC50.
[A] 142 µM (active)

[Q] Given the molecule Cc1ccc(C)c(OCC(O)CN2CCC(C)CC2)c1C (stereo unspecified) , write its reported IC50.
[A] 225 µM (active)

[Q] Given the molecule O=c1c(O)c(-c2ccc(O)c(O)c2)oc2cc(O)ccc12 , write its reported IC50.
[A] 45.7 µM (active)

[Q] Given the molecule Cc1cc(/C=C2\SC(=S)NC2=O)c(C)[nH]1 , write its reported IC50.
[A] 207 µM (active)

[Q] Given the molecule CCOC(=O)c1[nH]c2ccc(C)cc2c1N , write its reported IC50.
[A] 24.1 µM (active)

###

Target: Disintegrin and metalloproteinase domain-containing protein 17 (Homo sapiens)
Sequence (P78536 whole entry, the tested form may be a part): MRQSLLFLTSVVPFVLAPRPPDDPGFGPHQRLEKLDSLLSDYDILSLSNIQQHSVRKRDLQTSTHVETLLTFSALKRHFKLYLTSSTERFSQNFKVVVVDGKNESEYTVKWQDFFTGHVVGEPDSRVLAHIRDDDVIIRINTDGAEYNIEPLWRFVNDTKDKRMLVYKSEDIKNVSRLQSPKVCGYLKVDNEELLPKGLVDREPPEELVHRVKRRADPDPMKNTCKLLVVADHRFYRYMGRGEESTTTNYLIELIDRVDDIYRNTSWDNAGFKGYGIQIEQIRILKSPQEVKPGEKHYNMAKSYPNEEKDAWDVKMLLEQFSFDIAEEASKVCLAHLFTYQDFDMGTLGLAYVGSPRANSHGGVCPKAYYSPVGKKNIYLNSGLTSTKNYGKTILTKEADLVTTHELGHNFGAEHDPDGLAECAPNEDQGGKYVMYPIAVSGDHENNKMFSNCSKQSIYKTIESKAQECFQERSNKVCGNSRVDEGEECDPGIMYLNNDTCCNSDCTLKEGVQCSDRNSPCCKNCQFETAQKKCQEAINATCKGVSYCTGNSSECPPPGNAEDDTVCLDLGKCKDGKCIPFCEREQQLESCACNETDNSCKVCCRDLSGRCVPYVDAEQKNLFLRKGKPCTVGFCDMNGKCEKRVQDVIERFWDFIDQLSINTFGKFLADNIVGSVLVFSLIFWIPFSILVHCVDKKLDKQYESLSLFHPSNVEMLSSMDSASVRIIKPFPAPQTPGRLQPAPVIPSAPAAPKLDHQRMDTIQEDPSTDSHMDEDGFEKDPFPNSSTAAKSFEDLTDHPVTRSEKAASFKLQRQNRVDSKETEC
Assay: ADAM17 protease inhibitors, dose response, counter-screen for ADAM10 exosite inhibitor project, biochemical, quenched FRET substrate (AID 743253)
Activity calls are given as the source filed them. How the calls were made is not given here.
// classify into active, inactive

[Q] Outcome? O=c1[nH]c2ccccc2n1C1CCN(C(c2ccccc2OC(F)(F)F)c2nnnn2-c2ccc3c(c2)OCCO3)CC1 (centres undefined)
[A] inactive

[Q] Outcome? COc1ccc(OC(F)(F)F)cc1CC1(C)C(=O)Nc2ccc(-c3ccsc3)cc21 (centres undefined)
[A] inactive

[Q] Outcome? O=[N+]([O-])c1ccc(O)c(/C=N/Nc2ccccn2)c1
[A] active

[Q] Outcome? C=CCC[C@H](Cc1ccc(F)cc1)C(=O)OC[C@H](Cc1c[nH]c2ccccc12)NC(=O)[C@@H](CC=C)CC(=O)N[C@H](CO)Cc1ccccc1
[A] inactive

This collection of values is drawn from ChEMBL document CHEMBL1201862.
